# target under test: JAK3 (Homo sapiens, UniProt P52333)
# Construct: purchased Thermo fisher PV3855
# Sequence (P52333 781-1124 limits assumed): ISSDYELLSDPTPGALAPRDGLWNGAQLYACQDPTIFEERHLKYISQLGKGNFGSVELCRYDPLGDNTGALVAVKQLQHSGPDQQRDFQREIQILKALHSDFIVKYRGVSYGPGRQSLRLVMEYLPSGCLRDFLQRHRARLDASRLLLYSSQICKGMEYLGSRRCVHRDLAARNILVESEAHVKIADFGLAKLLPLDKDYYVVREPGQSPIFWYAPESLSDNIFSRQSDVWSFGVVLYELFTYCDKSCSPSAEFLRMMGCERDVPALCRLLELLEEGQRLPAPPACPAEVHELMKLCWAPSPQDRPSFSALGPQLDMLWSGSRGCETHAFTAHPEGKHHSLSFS
# measurement notes: JAK3 biochemical assay (ADP-GLO Kinase Assay)
# assay conditions: ratio of JAK3 IC50 to HPK1 IC50; first testing facility
Consider the following partition of reported JAKs/HPK1 IC50 Ratio, B* into named classes: low (below 60), middle (60 to below 400), high (400 or more)

compound: CCc1c[nH]c2ncc(-c3ccc(NC(C)=O)c(P(C)(C)=O)c3)cc12 [Example 58]
label class: low
--
compound: COc1cc2c(cc1Nc1ncc(Cl)c(N3CC(C)(CC(=O)O)c4ccccc43)n1)CN(C)C2 (centres unmarked) [Example 159]
label class: middle
--
compound: COc1cc2c(cc1Nc1ncc(Cl)c(N3CC(C(=O)O)c4ccccc43)n1)CN(C)CC2 (single isomer, unassigned) [Example 95]
label class: middle
--
compound: COc1cc2c(cc1Nc1ncc3ccn(-c4cccnc4C)c3n1)CN(C)CC2 [Example 41]
label class: low
--
compound: CONC(=O)C1CN(c2nc(Nc3cc4c(cc3OC)CCN(C)C4)ncc2Cl)c2ccccc21 (centres unmarked) [Example 103]
label class: high
--
compound: COc1cc2c(cc1Nc1ncc(Cl)c(-n3cc(C(N)=O)c4ccccc43)n1)CN(C)CC2 [Example 34]
label class: middle
--
compound: COc1cc2c(cc1Nc1ncc(Cl)c(N3CC(C)(CC(=O)O)c4ccccc43)n1)CNCC2 (centres unmarked) [Example 160]
label class: middle
--
compound: COc1cc2c(cc1Nc1nccc(N3CC(C(=O)O)c4ccccc43)n1)CN(C)CC2 (centres unmarked) [Example 163]
label class: high
--
compound: CCc1c[nH]c2ncc(-c3ccc(NC4COC4)c(P(C)(C)=O)c3)cc12 [Example 76]
label class: low
--
compound: COC(=O)C1CN(c2nc(Nc3cc4c(cc3OC)CCN(C)C4)ncc2Cl)c2ccccc21 (centres unmarked) [Example 115]
label class: high
--
compound: COc1cc2c(cc1Nc1ncc(Cl)c(-c3nn(CC(=O)O)c4ccccc34)n1)CN(C)CC2 [Example 162]
label class: high
--
compound: CCc1c[nH]c2ncc(-c3ccc(N4CCCC4=O)c(P(C)(C)=O)c3)cc12 [Example 66]
label class: low
--
compound: COc1cc2c(cc1Nc1ncc(Cl)c(N3CCc4c(OC)cccc43)n1)CN(C)CC2 [Example 89]
label class: high

###

# Tested on: Human Pan T Cell (IL-2 release)
# measurement notes: IL2 released by human pan T cell upon anti-CD3/anti-CD28 stimulation (ELISA)
# Format: cell-based
# assay conditions: Homo sapiens, T-cell, IL-2 response, human pan T cells, calculated with GraphPad Prism
EC50 by entry:

molecule: COc1cc2c(cc1Nc1ncc(Cl)c(-n3cc(Cc4nn[nH]n4)c4ccccc43)n1)CN(C)CC2 [Example 135]
EC50: > 1000 nM
//
molecule: COc1cc2c(cc1Nc1ncc(Cl)c(N3CCc4ccc(Cl)cc43)n1)CN(C)CC2 [Example 18]
EC50: 100 to 500 nM
//
molecule: COc1cc2c(cc1Nc1ncc(Cl)c(N3CC(C)(C)c4ccccc43)n1)CN(C)CC2 [Example 25]
EC50: 500 to 1000 nM
//
molecule: CN1CCc2cc(Cl)c(Nc3ncc(Cl)c(N4CCc5ccccc54)n3)cc2C1 [Example 15]
EC50: > 1000 nM

###

# target under test: HPK1 (Homo sapiens, UniProt Q92918)
# Sequence (Q92918 whole entry): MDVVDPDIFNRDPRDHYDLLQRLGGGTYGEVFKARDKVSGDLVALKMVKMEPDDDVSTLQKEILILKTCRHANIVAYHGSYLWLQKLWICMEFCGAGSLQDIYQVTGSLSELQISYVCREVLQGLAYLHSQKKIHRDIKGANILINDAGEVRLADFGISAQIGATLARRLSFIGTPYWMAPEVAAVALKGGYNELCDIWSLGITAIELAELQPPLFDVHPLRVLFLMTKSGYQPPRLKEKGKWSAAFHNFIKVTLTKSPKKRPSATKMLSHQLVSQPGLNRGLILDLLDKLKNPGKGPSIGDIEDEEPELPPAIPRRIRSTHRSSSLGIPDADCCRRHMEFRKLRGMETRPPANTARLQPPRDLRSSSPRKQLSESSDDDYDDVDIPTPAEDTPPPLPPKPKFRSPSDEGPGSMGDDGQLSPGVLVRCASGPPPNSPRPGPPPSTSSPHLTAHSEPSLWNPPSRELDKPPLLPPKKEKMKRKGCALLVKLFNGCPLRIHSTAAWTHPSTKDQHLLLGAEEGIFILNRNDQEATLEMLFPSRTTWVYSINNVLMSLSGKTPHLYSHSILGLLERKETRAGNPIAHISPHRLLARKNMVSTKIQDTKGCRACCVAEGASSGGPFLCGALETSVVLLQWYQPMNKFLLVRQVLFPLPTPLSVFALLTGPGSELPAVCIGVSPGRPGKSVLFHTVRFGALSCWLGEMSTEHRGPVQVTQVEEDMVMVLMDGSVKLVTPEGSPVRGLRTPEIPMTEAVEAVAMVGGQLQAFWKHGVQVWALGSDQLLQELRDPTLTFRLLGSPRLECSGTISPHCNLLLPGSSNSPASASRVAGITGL
# measurement notes: HPK1 biochemical assay (ADP-GLO Kinase Assay)
# assay conditions: B*: testing performed in a first testing facility; read-out: HPK1 IC50 (nM) Relative, B*
assay metric: IC50

compound: COc1cc2c(cc1Nc1ncc(Cl)c(N3CC(C(=O)O)c4c(OC)cccc43)n1)CN(C)CC2 (stereo not drawn)
target under test: HPK1 (Homo sapiens, UniProt Q92918)
assay metric: IC50
measurement: ≤ 100 nM
//
compound: COc1cc2c(cc1Nc1ncc(C#N)c(N3CC(C(=O)O)c4ccccc43)n1)CN(C)CC2 (stereo not drawn)
target under test: HPK1 (Homo sapiens, UniProt Q92918)
assay metric: IC50
measurement: ≤ 100 nM
//
compound: COc1cc2c(cc1Nc1ncc(Cl)c(N3CC(C)(C(=O)O)c4ccccc43)n1)CN(C)CC2 (stereo not drawn)
target under test: HPK1 (Homo sapiens, UniProt Q92918)
assay metric: IC50
measurement: ≤ 100 nM
//
compound: CCc1c[nH]c2ncc(-c3ccc(C)c(P(C)(C)=O)n3)cc12
target under test: HPK1 (Homo sapiens, UniProt Q92918)
assay metric: IC50
measurement: ≤ 100 nM
//
compound: COc1cc2c(cc1Nc1ncc(Cl)c(N3CCc4cc(Cl)ccc43)n1)CN(C)CC2
target under test: HPK1 (Homo sapiens, UniProt Q92918)
assay metric: IC50
measurement: ≤ 100 nM
//
compound: CCc1c[nH]c2ncc(-c3cc(C)cc(P(C)(C)=O)c3)cc12
target under test: HPK1 (Homo sapiens, UniProt Q92918)
assay metric: IC50
measurement: 500 to 1000 nM
//
compound: CC(C)Oc1cc2c(cc1Nc1ncc(Cl)c(N3CC(C(=O)O)c4ccccc43)n1)CN(C)CC2 (stereo not drawn)
target under test: HPK1 (Homo sapiens, UniProt Q92918)
assay metric: IC50
measurement: ≤ 100 nM
//
compound: COc1cc2c(cc1Nc1ncc(Cl)c(N3CC(C)(C(=O)O)c4ccc(F)cc43)n1)CN(C)CC2 (stereo not drawn)
target under test: HPK1 (Homo sapiens, UniProt Q92918)
assay metric: IC50
measurement: ≤ 100 nM
//
compound: COc1cc2c(cc1Nc1ncc(Cl)c(-n3cc(CC#N)c4ccccc43)n1)CN(C)CC2
target under test: HPK1 (Homo sapiens, UniProt Q92918)
assay metric: IC50
measurement: ≤ 100 nM
//
compound: COc1cc2c(cc1Nc1ncc3ccc(=O)n(-c4ccccc4)c3n1)CN(C)CC2
target under test: HPK1 (Homo sapiens, UniProt Q92918)
assay metric: IC50
measurement: ≤ 100 nM
//
compound: COc1cc2c(cc1Nc1ncc(Cl)c(N3CC(C(N)=O)c4ccccc43)n1)CN(C)CC2 (stereo not drawn)
target under test: HPK1 (Homo sapiens, UniProt Q92918)
assay metric: IC50
measurement: ≤ 100 nM
//
compound: COc1cc2c(cc1Nc1ncc(Cl)c(-n3cc(CC(=O)NCC#N)c4ccccc43)n1)CN(C)CC2
target under test: HPK1 (Homo sapiens, UniProt Q92918)
assay metric: IC50
measurement: ≤ 100 nM
//
compound: CCc1c[nH]c2ncc(-c3ccc(C(F)(F)F)c(P(C)(C)=O)c3)cc12
target under test: HPK1 (Homo sapiens, UniProt Q92918)
assay metric: IC50
measurement: 500 to 1000 nM
//
compound: CCc1c[nH]c2ncc(-c3ccc(CN(C)C)c(P(C)(C)=O)c3)cc12
target under test: HPK1 (Homo sapiens, UniProt Q92918)
assay metric: IC50
measurement: 500 to 1000 nM
//
compound: COc1cc2c(cc1Nc1ncc3cc(C(=O)O)n(-c4ccccc4)c3n1)CN(C)CC2
target under test: HPK1 (Homo sapiens, UniProt Q92918)
assay metric: IC50
measurement: ≤ 100 nM
//
compound: COc1cc2c(cc1Nc1ncc(Cl)c(N3CCc4ncccc43)n1)CN(C)CC2
target under test: HPK1 (Homo sapiens, UniProt Q92918)
assay metric: IC50
measurement: ≤ 100 nM
//
compound: COc1cc2c(cc1Nc1ncc(Cl)c(N3CC4(CC4)c4ccccc43)n1)CN(C)CC2
target under test: HPK1 (Homo sapiens, UniProt Q92918)
assay metric: IC50
measurement: ≤ 100 nM
//
compound: COc1cc2c(cc1Nc1ncc(Cl)c(N3CCc4ccccc43)n1)CN(C(=O)CN(C)C)CC2
target under test: HPK1 (Homo sapiens, UniProt Q92918)
assay metric: IC50
measurement: ≤ 100 nM
//
compound: COc1cc2c(cc1Nc1ncc(F)c(N3CC(C(=O)O)c4ccccc43)n1)CN(C)CC2 (stereo not drawn)
target under test: HPK1 (Homo sapiens, UniProt Q92918)
assay metric: IC50
measurement: ≤ 100 nM
//
compound: COc1cc2c(cc1Nc1ncc(Cl)c(N3CC(C(=O)O)c4cc(F)ccc43)n1)CN(C)CC2 (stereo not drawn)
target under test: HPK1 (Homo sapiens, UniProt Q92918)
assay metric: IC50
measurement: ≤ 100 nM
//
compound: COc1cc2c(cc1Nc1ncc(Cl)c(N3CC(c4nn[nH]n4)c4ccccc43)n1)CN(C)CC2 (stereo not drawn)
target under test: HPK1 (Homo sapiens, UniProt Q92918)
assay metric: IC50
measurement: ≤ 100 nM
//
compound: COc1cc2c(cc1Nc1ncc(Cl)c(N3CCc4ccccc4C3)n1)CN(C)CC2
target under test: HPK1 (Homo sapiens, UniProt Q92918)
assay metric: IC50
measurement: 100 to 500 nM
//
compound: COc1cc2c(cc1Nc1ncc(Cl)c(N3CC(C)(CC(=O)O)c4ccc(F)cc43)n1)CN(C)CC2 (stereo not drawn) [Example 151]
target under test: HPK1 (Homo sapiens, UniProt Q92918)
assay metric: IC50
measurement: ≤ 100 nM
//
compound: COc1cc2c(cc1Nc1ncc(Cl)c(-n3nc(CC(=O)O)c4ccccc43)n1)CN(C)CC2
target under test: HPK1 (Homo sapiens, UniProt Q92918)
assay metric: IC50
measurement: ≤ 100 nM
//
compound: CONC(=O)C1CN(c2nc(Nc3cc4c(cc3OC)CCN(C)C4)ncc2Cl)c2ccccc21 (stereo not drawn)
target under test: HPK1 (Homo sapiens, UniProt Q92918)
assay metric: IC50
measurement: ≤ 100 nM
//
compound: CCc1c[nH]c2ncc(-c3ccc(O)c(P(C)(C)=O)c3)cc12
target under test: HPK1 (Homo sapiens, UniProt Q92918)
assay metric: IC50
measurement: ≤ 100 nM
//
compound: COc1cc2c(cc1Nc1ncc3ncn(-c4ccccc4P(C)(C)=O)c3n1)CN(C)CC2
target under test: HPK1 (Homo sapiens, UniProt Q92918)
assay metric: IC50
measurement: > 1000 nM
//
compound: COc1cc2c(cc1Nc1ncc(Cl)c(N3CCc4c(C(F)F)cccc43)n1)CN(C)CC2
target under test: HPK1 (Homo sapiens, UniProt Q92918)
assay metric: IC50
measurement: ≤ 100 nM
//
compound: COc1cc2c(cc1Nc1ncc(Cl)c(N3CCc4cc(Br)ccc43)n1)CN(C)CC2
target under test: HPK1 (Homo sapiens, UniProt Q92918)
assay metric: IC50
measurement: ≤ 100 nM
//
compound: COc1cc2c(cc1Nc1ncc3ccn(-c4cccnc4)c3n1)CN(C)CC2
target under test: HPK1 (Homo sapiens, UniProt Q92918)
assay metric: IC50
measurement: ≤ 100 nM
//
compound: CCc1c[nH]c2ncc(-c3ccc(NC)c(P(C)(C)=O)c3)cc12
target under test: HPK1 (Homo sapiens, UniProt Q92918)
assay metric: IC50
measurement: 100 to 500 nM
//
compound: COc1cc2c(cc1Nc1ncc(Cl)c(N3CC(P(C)(C)=O)c4ccccc43)n1)CN(C)CC2 (stereo not drawn)
target under test: HPK1 (Homo sapiens, UniProt Q92918)
assay metric: IC50
measurement: ≤ 100 nM
//
compound: COc1cc2c(cc1Nc1ncc(Cl)c(N3CC(C)(CC(=O)O)c4ccccc43)n1)CN(C)C2 (stereo not drawn)
target under test: HPK1 (Homo sapiens, UniProt Q92918)
assay metric: IC50
measurement: ≤ 100 nM
